ASSAYED_TARGET: 5-HT1A receptors (Rattus norvegicus, UniProt P19327)
Sequence (P19327 1-422): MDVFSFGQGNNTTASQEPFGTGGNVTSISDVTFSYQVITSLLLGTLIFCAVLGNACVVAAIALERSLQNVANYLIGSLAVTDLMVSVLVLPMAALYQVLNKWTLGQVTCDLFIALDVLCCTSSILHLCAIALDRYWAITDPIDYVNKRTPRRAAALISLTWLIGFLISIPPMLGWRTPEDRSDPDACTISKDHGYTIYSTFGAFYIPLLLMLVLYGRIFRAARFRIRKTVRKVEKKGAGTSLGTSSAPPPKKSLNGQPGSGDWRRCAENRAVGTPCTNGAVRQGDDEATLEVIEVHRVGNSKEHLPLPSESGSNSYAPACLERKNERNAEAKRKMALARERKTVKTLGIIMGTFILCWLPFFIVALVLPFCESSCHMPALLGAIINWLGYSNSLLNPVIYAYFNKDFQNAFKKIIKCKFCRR
TEST_PROTOCOL: Inhibition of 3H-8-OH-DPAT binding to synaptosomal membranes from rat cerebral cortex
DETAILS: 0.4 nM 3H-8-OH-DPAT, 37°C, 10 min, read-out: IC50 (concentration in nanomoles which inhibited binding of 8-OH-DPAT by 50%)
MEASURED_ATTRIBUTE: IC50 (nM)
The reply should be a number in nM, with the unit left off.

Solved entries (count: 3):
CCCN(CCC)[C@H]1Cc2c(C(=O)N(C)C)ccc3c2[C@@H](CN3)C1 ... 5.1
CCCN(CCC)[C@@H]1Cc2c(C(N)=O)ccc3c2[C@H](CN3)C1 ... 11
CCCN(CCC)[C@H]1Cc2c(C(N)=O)ccc3c2[C@@H](CN3)C1 ... 2.1

Turning to the following molecule.
Please give the measured IC50 for this molecule: "CCCN(CCC)[C@H]1Cc2c(C(=O)OC)ccc3c2[C@@H](CN3)C1" 5.7

###

ASSAYED_TARGET: 5-HT1A receptors (Rattus norvegicus)
Construct: from tissue; host or cells: rat cerebral cortex, crude synaptosomal membranes
TEST_PROTOCOL: Inhibition of 3H-8-OH-DPAT binding to synaptosomal membranes from rat cerebral cortex
Parameters: species or system Male Sprague-Dawley rats
DETAILS: at 100 nanomoles of test compound, 0.4 nM 3H-8-OH-DPAT, read-out: percent of inhibition of binding of 8-OH-DPAT at 100 nanomoles if less than 50%
Catalogue of inhibition at 0.1 µM values
The response must be a number in % with no trailing unit.

Example entries begin here.
N[C@@H]1Cc2c(Br)ccc3c2[C@@H](C1)CN3C(=O)c1ccccc1 ... 6
CCCN(CCC)[C@@H]1Cc2c(C#N)ccc3c2[C@@H](C1)CN3C(=O)c1ccccc1 ... 11
CCCN(CCC)[C@@H]1Cc2c(Br)ccc3c2[C@@H](C1)CN3C(=O)c1ccccc1 ... 5

Okay, now this molecule:
# get_value(readout='inhibition at 0.1 µM', item= "CCCN(CCC)[C@@H]1Cc2c(C#N)ccc3c2[C@H](CN3)C1" ) 21
